Test system: RAF1
conditions_used: concentration: 1 μM, replicates: in singlicate; n = 1;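 also: KINOMEscan kinase panel screen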
Please note: y applies when %Inh is 2% or greater, and n applies otherwise.

Given `O=C(NCc1cccs1)c1cc(C(=O)c2c(Cl)cccc2Cl)c[nH]1` , state whether its %Inh is at least 2%.
n

Assess whether reported %Inh for `CCC(=O)c1c(-c2ccccc2)c2cc(Cl)ccc2c(=O)n1Cc1cc(S(C)(=O)=O)n(CCC(C)(C)O)n1` sits at 2% or higher.
y

Record `O=C(NCCNc1ccnc(Nc2ccc(F)cc2)n1)Nc1ccc2c(c1)OCO2` ; criterion: %Inh no lower than 2%. Met?
y

Check this compound for %Inh at or above 2%: `CCCC(=O)Nc1n[nH]c2ncc(-c3cccc4ccccc34)cc12`
y

Item `COc1cc(OC)cc(-c2cc3cnc(N)nc3nc2NC(=O)NC(C)(C)C)c1` with %Inh of 2% or above?
n

Please check the record `Nc1ncnc2c1ncn2-c1ccc(Cl)cc1` and state if its %Inh is at or above 2%.
n

# check: %Inh of `COc1cc2ncn(-c3cc(OCc4ccc(S(C)(=O)=O)cc4)c(C(N)=O)s3)c2cc1OC` is greater than or equal to 2%
n

====

System: RSK4(Kin.Dom.1-N-terminal)
Construct: gene RPS6KA6
conditions_used: concentration: 1 μM, replicates: in singlicate; n = 1
observed_property: %Inh
Be sure to follow the number with its unit.

Under RSK4(Kin.Dom.1-N-terminal), report %Inh for COc1cccc(-n2cnc3c(N)ncnc32)c1 [SKF-97416]
40%

Please respond with reported %Inh (system RSK4(Kin.Dom.1-N-terminal)) for O=c1cc(N2CCOCC2)nc2n(Cc3ccc(F)c(Cl)c3)ccn12 [GSK2297099] .
0%

Recall the reported %Inh of `CCC(=O)c1c(-c2ccccc2)c2cc(Cl)ccc2c(=O)n1Cc1cc(S(C)(=O)=O)n(CCC(C)(C)O)n1` when tested on RSK4(Kin.Dom.1-N-terminal).
39%

Enter recorded %Inh with RSK4(Kin.Dom.1-N-terminal) for `COc1ccc(-c2cc3c(C)nc(N)nc3n([C@H]3CC[C@H](O)CC3)c2=O)cn1` here.
0%

Report its %Inh with RSK4(Kin.Dom.1-N-terminal) as the test system: O=C(Nc1ccc2c(c1)OCO2)NC1CCN(c2ccnc(NCc3ccc(F)cc3)n2)CC1 [GSK1379859]
0%

====

System: PAK7
conditions_used: concentration: 1 μM, replicates: in singlicate; n = 1
observed_property: %Inh (%)
Unit % implied. Number only.

Indicate its recorded %Inh; the compound in question is Cl.NS(=O)(=O)c1cccc(Nc2cc(-c3ccc(F)cc3)n[nH]2)c1 [GW824645]
0

Identify the reported %Inh for the following entry. `CCCNC(=O)Nc1ccc(Oc2ncnc3ccn(C)c23)cc1`
5

Tell us which %Inh value is on record for OCCCNc1nccc(-c2c(-c3cccc(C(F)(F)F)c3)nn3cc(C(F)(F)F)ccc23)n1 [GW630813]
12

Return %Inh for the following compound: `CCC(=O)c1c(-c2ccccc2)c2cc(Cl)ccc2c(=O)n1Cc1cc(S(C)(=O)=O)n(CC(N)=O)n1`
0

Return %Inh for the following compound: O=C(Nc1n[nH]c2cc(-c3ccccc3F)ccc12)C1CC1 [SB-733371]
9

Supply reported %Inh belonging to this compound: COc1cc2nccc(Nc3cccc(Oc4ccccc4)c3)c2cc1OC.Cl [GW284543]
4

State its %Inh: Cc1cccc(-c2cc(-c3c[nH]nc3-c3ccccn3)ccn2)c1 [GW679395]
0

Return reported %Inh. Input compound: Nc1ncnc2c1ncn2-c1cccc(F)c1 [SKF-97560]
3

Find the measured %Inh of `CCC(=O)c1c(-c2ccccc2)c2cc(Cl)ccc2c(=O)n1Cc1ccc(C(=O)O)cc1` and report it.
0

Please indicate %Inh recorded for `CCC(=O)c1c(-c2ccccc2)c2cc(Cl)ccc2c(=O)n1Cc1cc(C(=O)NC2CC2)n(C)n1`
0

For the compound `Cc1nc(N(C)[C@H]2CN(C(=O)CC#N)CC[C@H]2C)c2cc[nH]c2n1` , give its reported %Inh.
15

Note %Inh for the compound shown: Cc1cc(Nc2nc(-c3cccc(C)n3)nc3ccccc23)ccn1 [GW872411]
17

Return %Inh (reported value) for this compound: Nc1n[nH]c2ncc(-c3ccccc3)cc12 [SB-517081]
0

Complete the entry with %Inh for Cc1c(Cn2c(C)nn3c(=O)cc(N4CCO[C@H](C)C4)nc23)cccc1C(F)(F)F [GSK2373690]
0

Please report the measured %Inh for `COc1cc(OC)cc(-c2cc3cnc(N)nc3nc2NC(=O)NC(C)(C)C)c1`
9

Complete the entry with %Inh for `COc1ccc(-c2coc3ccc(-c4nnc(SCc5cccc(C#N)c5)o4)cc23)cc1`
15

State its %Inh for this compound: O=C(NCCNc1ccnc(Nc2ccc(F)cc2)n1)Nc1ccc2c(c1)OCO2 [GSK1379882]
7

Annotate the compound COc1cccc(C2=C(Nc3cccc(C(=O)O)c3)C(=O)NC2=O)c1 [SB-390770] with its measured %Inh.
0

// fetch %Inh given entry COc1cc(Nc2nccc(N3CCC(NC(=O)C4COc5ccccc5O4)C3)n2)cc(OC)c1OC (stereo not shown) [GSK1379761]
3
